Biological target: AAK1 (Homo sapiens, UniProt Q2M2I8)
Sequence (Q2M2I8 whole entry): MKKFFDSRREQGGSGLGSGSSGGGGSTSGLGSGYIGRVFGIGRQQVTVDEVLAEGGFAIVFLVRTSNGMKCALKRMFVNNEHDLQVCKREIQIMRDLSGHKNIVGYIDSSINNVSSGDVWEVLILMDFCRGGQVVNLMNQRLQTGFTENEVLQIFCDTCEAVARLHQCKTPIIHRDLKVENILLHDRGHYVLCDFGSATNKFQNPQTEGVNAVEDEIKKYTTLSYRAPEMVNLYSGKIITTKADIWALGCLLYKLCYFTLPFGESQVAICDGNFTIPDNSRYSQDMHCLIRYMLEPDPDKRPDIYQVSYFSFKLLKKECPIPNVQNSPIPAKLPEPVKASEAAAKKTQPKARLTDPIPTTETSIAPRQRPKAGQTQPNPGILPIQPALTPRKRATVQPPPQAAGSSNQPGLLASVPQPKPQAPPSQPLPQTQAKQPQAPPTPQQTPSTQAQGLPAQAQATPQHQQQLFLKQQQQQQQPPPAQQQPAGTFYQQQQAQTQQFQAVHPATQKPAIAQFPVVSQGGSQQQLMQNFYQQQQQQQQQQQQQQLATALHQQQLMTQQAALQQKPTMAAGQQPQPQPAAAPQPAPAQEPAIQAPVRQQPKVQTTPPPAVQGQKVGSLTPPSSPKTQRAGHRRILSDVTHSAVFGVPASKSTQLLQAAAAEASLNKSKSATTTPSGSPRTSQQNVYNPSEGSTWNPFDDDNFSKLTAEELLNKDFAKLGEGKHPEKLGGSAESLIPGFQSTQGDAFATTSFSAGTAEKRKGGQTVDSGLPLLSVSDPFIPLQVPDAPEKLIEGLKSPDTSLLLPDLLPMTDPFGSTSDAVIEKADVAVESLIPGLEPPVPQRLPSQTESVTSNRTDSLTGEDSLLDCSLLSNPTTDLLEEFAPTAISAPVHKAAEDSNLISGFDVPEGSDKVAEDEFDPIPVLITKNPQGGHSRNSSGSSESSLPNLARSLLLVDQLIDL
Experiment: pAP2M1 cell-based assay (in-cell Western)
Settings: Hela cells co-transfected with AP2M1 and AAK1, 3 hr treatment; class symbols; read-out: AAK1 In-cell Western: IC50
pIC50: −log10 of the molar value.
readout_name: pIC50

CN(CCNc1ccn2ncc(-c3cccnc3OC3CC3)c2n1)C(=O)O[C@H]1CO[C@H]2OCC[C@H]21 [Compound I-71] :: 5.82 to 6.30

Field request: pIC50 | item: COC(=O)N1CC(Oc2ncccc2-c2cnn3ccc(N4CCN(C(=O)O[C@@H]5CC(=O)N(CCO)C5)CC4)nc23)C1 [Compound I-84]
< 5.82

Try this molecule too: C[C@@]1(OC(=O)N[C@H]2CCN(c3ccn4ncc(-c5cccnc5OC5CC5)c4n3)C2)CCNC1 [Compound I-57]
< 5.82

Lookup O=C(O[C@H]1CC(=O)N(C2CCNCC2)C1)N1CCN(c2ccn3ncc(-c4cccnc4OC4CC4)c3n2)CC1 [Compound I-32]
< 5.82

Param item: C[C@@]1(OC(=O)N2CCN(c3ccn4ncc(-c5cccnc5OC5CC5)c4n3)CC2)CCN(CCO)C1 [Compound I-52]
6.30 to 6.82

Further, for O=C1C[C@H](OC(=O)N2CCN(c3ccn4ncc(-c5cccnc5NC5CNC5)c4n3)CC2)CN1 [Compound I-49] ?
< 5.82

Values compiled from patent US20250122207A1.
